assay: Biodistribution in PC-3 tumor-bearing NRG mice (Example 1); assay type: in vivo; conditions: male, NRG (NOD.Cg-Rag1tm1Mom Il2rgtm1Wjl/SzJ), mouse, kidney, iv, 1.84 MBq, total radioactivity; 120 min p.i.; read-out: Biodistribution Kidney, Mean
experimental-endpoint: tissue uptake at 2 h (%ID/g)
Your answer is read as %ID/g, so omit the unit and give the number.

# tissue uptake at 2 h lookup, item CC(C)C[C@@H](CN1CCC[C@H]1C(N)=O)NC(=O)[C@H](Cc1c[nH]cn1)NC(=O)CNC(=O)[C@@H](NC(=O)[C@H](C)NC(=O)[C@H](Cc1c[nH]c2ccccc12)NC(=O)[C@H](CCC(N)=O)NC(=O)[C@@H](Cc1ccccc1)NC(=O)COCC(=O)Nc1ccc(CNC(=O)CN2CCN(CC(=O)O)CCN(CC(=O)O)CCN(CC(=O)O)CC2)cc1)C(C)C [^68Ga-ProBOMB1, metal not drawn] 0.78

----------
test: Biodistribution in PC-3 tumor-bearing NSG mice (Example 2); assay type: in vivo; conditions: male, NSG (NOD.Cg-Prkdc^scid Il2rg^tm1Wjl/SzJ), mouse, spleen, iv, total radioactivity, 60 MIN BLOCKED, co-injection of 100 μg of [D-Phe^6,Leu-NHEt^13,des-Met^14]Bombesin(6-14); read-out: Biodistribution SPLEEN, Mean
experimental-endpoint: tissue uptake at 1 h
Could you write the number and then its unit?

# tissue uptake at 1 h lookup, item CC(C)C[C@@H](CN1CCC[C@H]1C(N)=O)NC(=O)[C@H](Cc1c[nH]cn1)NC(=O)CNC(=O)[C@@H](NC(=O)[C@H](C)NC(=O)[C@H](Cc1c[nH]c2ccccc12)NC(=O)[C@H](CCC(N)=O)NC(=O)[C@@H](Cc1ccccc1)NC(=O)CN1CCC(NC(=O)CN2CCN(CC(=O)O)CCN(CC(=O)O)CCN(CC(=O)O)CC2)CC1)C(C)C [^68Ga-ProBOMB2, metal not drawn] 0.33 %ID/g

----------
assay: Biodistribution in PC-3 tumor-bearing NSG mice (Example 2); assay type: in vivo; details: male, NSG (NOD.Cg-Prkdc^scid Il2rg^tm1Wjl/SzJ), mouse, stomach, iv, total radioactivity, 60 MIN BLOCKED, co-injection of 100 μg of [D-Phe^6,Leu-NHEt^13,des-Met^14]Bombesin(6-14); read-out: Biodistribution STOMACH, Mean
experimental-endpoint: tissue uptake at 1 h (%ID/g)
Your answer is read as %ID/g, so omit the unit and give the number.

# tissue uptake at 1 h lookup, item CC(C)C[C@@H](CN1CCC[C@H]1C(N)=O)NC(=O)[C@H](Cc1c[nH]cn1)NC(=O)CNC(=O)[C@@H](NC(=O)[C@H](C)NC(=O)[C@H](Cc1c[nH]c2ccccc12)NC(=O)[C@H](CCC(N)=O)NC(=O)[C@@H](Cc1ccccc1)NC(=O)CN1CCC(NC(=O)CN2CCN(CC(=O)O)CCN(CC(=O)O)CCN(CC(=O)O)CC2)CC1)C(C)C [^68Ga-ProBOMB2, metal not drawn] 0.07

----------
assay: Biodistribution in PC-3 tumor-bearing NRG mice (Example 1); format: in vivo; conditions: male, NRG (NOD.Cg-Rag1tm1Mom Il2rgtm1Wjl/SzJ), mouse, kidney, iv, 1.84 MBq, total radioactivity; 60 min p.i.; read-out: Biodistribution Kidney, Mean
experimental-endpoint: tissue uptake at 1 h (%ID/g)
Your answer is read as %ID/g, so omit the unit and give the number.

# tissue uptake at 1 h lookup, item CC(C)C[C@@H](CN1CCC[C@H]1C(N)=O)NC(=O)[C@H](Cc1c[nH]cn1)NC(=O)CNC(=O)[C@@H](NC(=O)[C@H](C)NC(=O)[C@H](Cc1c[nH]c2ccccc12)NC(=O)[C@H](CCC(N)=O)NC(=O)[C@@H](Cc1ccccc1)NC(=O)COCC(=O)Nc1ccc(CNC(=O)CN2CCN(CC(=O)O)CCN(CC(=O)O)CCN(CC(=O)O)CC2)cc1)C(C)C [^68Ga-ProBOMB1, metal not drawn] 1.4

----------
test: Biodistribution in PC-3 tumor-bearing NSG mice (Example 2); assay type: in vivo; settings: male, NSG (NOD.Cg-Prkdc^scid Il2rg^tm1Wjl/SzJ), mouse, PC-3 tumor, iv, total radioactivity, 120 MIN p.i.; read-out: Biodistribution PC3 TUMOR, Mean
experimental-endpoint: tissue uptake at 2 h (%ID/g)
Your answer is read as %ID/g, so omit the unit and give the number.

# tissue uptake at 2 h lookup, item CC(C)C[C@@H](CN1CCC[C@H]1C(N)=O)NC(=O)[C@H](Cc1c[nH]cn1)NC(=O)CNC(=O)[C@@H](NC(=O)[C@H](C)NC(=O)[C@H](Cc1c[nH]c2ccccc12)NC(=O)[C@H](CCC(N)=O)NC(=O)[C@@H](Cc1ccccc1)NC(=O)CN1CCC(NC(=O)CN2CCN(CC(=O)O)CCN(CC(=O)O)CCN(CC(=O)O)CC2)CC1)C(C)C [^68Ga-ProBOMB2, metal not drawn] 8.79

----------
assay: Biodistribution in PC-3 tumor-bearing NSG mice (Example 2); assay type: in vivo; details: male, NSG (NOD.Cg-Prkdc^scid Il2rg^tm1Wjl/SzJ), mouse, brain, iv, total radioactivity, 120 MIN p.i.; read-out: Biodistribution BRAIN, Mean
experimental-endpoint: tissue uptake at 2 h (%ID/g)
Your answer is read as %ID/g, so omit the unit and give the number.

# tissue uptake at 2 h lookup, item CC(C)C[C@@H](CN1CCC[C@H]1C(N)=O)NC(=O)[C@H](Cc1c[nH]cn1)NC(=O)CNC(=O)[C@@H](NC(=O)[C@H](C)NC(=O)[C@H](Cc1c[nH]c2ccccc12)NC(=O)[C@H](CCC(N)=O)NC(=O)[C@@H](Cc1ccccc1)NC(=O)CN1CCC(NC(=O)CN2CCN(CC(=O)O)CCN(CC(=O)O)CCN(CC(=O)O)CC2)CC1)C(C)C [^68Ga-ProBOMB2, metal not drawn] 0.01

----------
test: Biodistribution in PC-3 tumor-bearing NSG mice (Example 2); format: in vivo; conditions: male, NSG (NOD.Cg-Prkdc^scid Il2rg^tm1Wjl/SzJ), mouse, muscle, iv, total radioactivity, 60 MIN BLOCKED, co-injection of 100 μg of [D-Phe^6,Leu-NHEt^13,des-Met^14]Bombesin(6-14); read-out: Biodistribution MUSCLE, Mean
experimental-endpoint: tissue uptake at 1 h (%ID/g)
Your answer is read as %ID/g, so omit the unit and give the number.

# tissue uptake at 1 h lookup, item CC(C)C[C@@H](CN1CCC[C@H]1C(N)=O)NC(=O)[C@H](Cc1c[nH]cn1)NC(=O)CNC(=O)[C@@H](NC(=O)[C@H](C)NC(=O)[C@H](Cc1c[nH]c2ccccc12)NC(=O)[C@H](CCC(N)=O)NC(=O)[C@@H](Cc1ccccc1)NC(=O)CN1CCC(NC(=O)CN2CCN(CC(=O)O)CCN(CC(=O)O)CCN(CC(=O)O)CC2)CC1)C(C)C [^68Ga-ProBOMB2, metal not drawn] 0.09

----------
experiment: Biodistribution in PC-3 tumor-bearing NSG mice (Example 2); assay type: in vivo; conditions: male, NSG (NOD.Cg-Prkdc^scid Il2rg^tm1Wjl/SzJ), mouse, adrenal glands, iv, total radioactivity, 120 MIN p.i.; read-out: Biodistribution ADRENAL GLANDS, Mean
experimental-endpoint: tissue uptake at 2 h (%ID/g)
Your answer is read as %ID/g, so omit the unit and give the number.

# tissue uptake at 2 h lookup, item CC(C)C[C@@H](CN1CCC[C@H]1C(N)=O)NC(=O)[C@H](Cc1c[nH]cn1)NC(=O)CNC(=O)[C@@H](NC(=O)[C@H](C)NC(=O)[C@H](Cc1c[nH]c2ccccc12)NC(=O)[C@H](CCC(N)=O)NC(=O)[C@@H](Cc1ccccc1)NC(=O)CN1CCC(NC(=O)CN2CCN(CC(=O)O)CCN(CC(=O)O)CCN(CC(=O)O)CC2)CC1)C(C)C [^68Ga-ProBOMB2, metal not drawn] 0.47

----------
experiment: Biodistribution in PC-3 tumor-bearing NSG mice (Example 2); format: in vivo; details: male, NSG (NOD.Cg-Prkdc^scid Il2rg^tm1Wjl/SzJ), mouse, liver, iv, total radioactivity, 60 MIN BLOCKED, co-injection of 100 μg of [D-Phe^6,Leu-NHEt^13,des-Met^14]Bombesin(6-14); read-out: Biodistribution LIVER, Mean
experimental-endpoint: tissue uptake at 1 h (%ID/g)
Your answer is read as %ID/g, so omit the unit and give the number.

# tissue uptake at 1 h lookup, item CC(C)C[C@@H](CN1CCC[C@H]1C(N)=O)NC(=O)[C@H](Cc1c[nH]cn1)NC(=O)CNC(=O)[C@@H](NC(=O)[C@H](C)NC(=O)[C@H](Cc1c[nH]c2ccccc12)NC(=O)[C@H](CCC(N)=O)NC(=O)[C@@H](Cc1ccccc1)NC(=O)CN1CCC(NC(=O)CN2CCN(CC(=O)O)CCN(CC(=O)O)CCN(CC(=O)O)CC2)CC1)C(C)C [^68Ga-ProBOMB2, metal not drawn] 0.57
